These entries and their values trace back to patent US11470846B2.

- System: Echinochloa crus-galli (ECHCG)
- experimental details: Pre-emergence herbicidal activity
- Assay type: in vivo
- test settings: pre-emergence application, 1000 g/Ha, evaluated after 13 days, scale 0-5; Table 5
quantity name: Control of weed species, ECHCG (damage score)

molecule: Cc1nc(-c2cc(F)c[n+]([O-])c2)sc1N(C)C(=O)OC(C)(C)C [Compound A62]
number: 3

molecule: COC(=O)N(C)c1sc(-c2cccnc2)nc1C [Compound A18]
number: 5

molecule: CN(C(=O)OC(C)(C)C)c1sc(-c2cncnc2)nc1C(F)(F)F [Compound A26]
number: 4

molecule: Cc1nc(-c2cncc(N(C)C)c2)sc1N(C)C(=O)OC(C)(C)C [Compound A13]
number: 1

molecule: Cc1nc(-c2cncnc2)sc1N(C)C(=O)OC(C)(C)C [Compound A2]
number: 5

molecule: Cc1nc(-c2cncc(Cl)c2)sc1N(C)C(=O)OC(C)(C)C [Compound A4]
number: 4

molecule: Cc1nc(-c2cccnc2)sc1N(C)C(=O)OC(C)C [Compound A20]
number: 5

molecule: Cc1nc(-c2cncc(F)c2)sc1N(C)C(=O)OC(C)(C)C [Compound A3]
number: 4

molecule: Cc1nc(-c2cncc(O)c2)sc1N(C)C(=O)OC(C)(C)C [Compound A15]
number: 0

molecule: Cc1nc(-c2cncc(OC(F)F)c2)sc1N(C)C(=O)OC(C)(C)C [Compound A16]
number: 4

molecule: Cc1nc(-c2cncc(C(F)(F)F)c2)sc1N(C)C(=O)OC(C)(C)C [Compound A10]
number: 1

molecule: COc1cncc(-c2nc(C)c(N(C)C(=O)OC(C)(C)C)s2)c1 [Compound A6]
number: 2

molecule: CCN(C(=O)OC(C)(C)C)c1sc(-c2cccnc2)nc1C [Compound A17]
number: 0

molecule: Cc1nc(-c2cncc(C=O)c2)sc1N(C)C(=O)OC(C)(C)C [Compound A5]
number: 0

molecule: CN(C(=O)OC(C)(C)C)c1sc(-c2cccnc2)nc1Cl [Compound A29]
number: 3

molecule: CCOC(=O)N(C)c1sc(-c2cccnc2)nc1C [Compound A19]
number: 5

molecule: Cc1nc(-c2cncc(C#N)c2)sc1N(C)C(=O)OC(C)(C)C [Compound A7]
number: 2

molecule: Cc1nc(-c2cccnc2)sc1N(C)C(=S)SC(C)(C)C [Compound A23]
number: 0

molecule: CSc1cncc(-c2nc(C)c(N(C)C(=O)OC(C)(C)C)s2)c1 [Compound A12]
number: 3

###

- Test system: Lolium perenne (LOLPE)
- experimental details: Post-emergence herbicidal activity
- Format: in vivo
- test settings: post-emergence application, 1000 g/Ha, evaluated after 13 days, scale 0-5; Table 7
quantity name: Control of weed species, LOLPE (damage score)

molecule: Cc1nc(-c2cncc(N(C)C)c2)sc1N(C)C(=O)OC(C)(C)C [Compound A13]
result: 0
--
molecule: CN(C(=O)OC(C)(C)C)c1sc(-c2cccnc2)nc1I [Compound A31]
result: 3
--
molecule: Cc1nc(-c2cncc(S(C)(=O)=O)c2)sc1N(C)C(=O)OC(C)(C)C [Compound A9]
result: 1
--
molecule: Cc1nc(-c2cccnc2)sc1N(C)C(=O)SC(C)(C)C [Compound A22]
result: 2
--
molecule: Cc1nc(-c2cncc(F)c2)sc1N1CCOC1=O [Compound A38]
result: 3
--
molecule: COc1cncc(-c2nc(C)c(N(C)C(=O)OC(C)(C)C)s2)c1 [Compound A6]
result: 2
--
molecule: Cc1nc(-c2cncc(C#N)c2)sc1N(C)C(=O)OC(C)(C)C [Compound A7]
result: 3
--
molecule: Cc1nc(-c2cccnc2)sc1N(C)C(=O)NC(C)(C)C [Compound A21]
result: 3
--
molecule: CN(C(=O)OC(C)(C)C)c1sc(-c2cncc(Cl)c2)nc1C(F)(F)F [Compound A27]
result: 3
--
molecule: Cc1nc(-c2cncc(C=O)c2)sc1N(C)C(=O)OC(C)(C)C [Compound A5]
result: 0
--
molecule: COC(=O)N(C)c1sc(-c2cccnc2)nc1C [Compound A18]
result: 2
